Reference source for all entries: patent US5736559A

Molecular target: Fibrinogen binding to human thrombocytes
Assay: Fibrinogen binding to human thrombocytes
Settings: 125I fibrinogen; gel-filtered human platelets; ADP; 20 minutes at ambient temperature; read-out: Fibrinogen binding test IC50
Counter-ions that a name gives are not always drawn.
Labelling field: enter true (1) if recorded IC50 is less than 200 nM. Enter false (0) if it equals or exceeds that cut-off.

A record lists COC(=O)Cc1cccc(NC(=O)Cc2ccc(-c3ccc(C(=N)N)cc3)cc2)c1 [6(46), hydrochloride] . Is its IC50 below 200 nM? false (0)

A record lists N=C(N)c1ccc(-c2ccc(OCC(=O)NCCC(=O)O)cc2)cc1 [1(4)] . Is its IC50 below 200 nM? false (0)

A record lists N=C(N)c1ccc(-c2ccc(C(=O)NC3CCC(C(=O)O)CC3)cc2)cc1 (centres unmarked) [1(80), hydrochloride] . Is its IC50 below 200 nM? true (1)

A record lists N=C(N)c1ccc(-c2ccc(OCCCCCC(=O)O)cc2)cc1 [Example 2, hydrochloride] . Is its IC50 below 200 nM? false (0)

A record lists N=C(N)c1ccc(-c2ccc(NC(=O)CCCC(=O)O)cc2)cc1 [1(1)] . Is its IC50 below 200 nM? true (1)
